Record form. Attribute: kIII, pseudo first-order rate constant, trisubstituted to disubstituted. Fill in for each entry.
- assay_name: Stability (hydrolysis kinetics) in rat whole blood
- Format: in vitro ADME
- applied_conditions: 37 °C, value ± standard error of fit
Answers are plain numbers, in h⁻¹.

Solved cases below.
molecule	experimental_value
CC(O)C(NC(=O)Oc1ccc(/C=C/c2cc(OC(=O)NC(C(=O)O)C(C)O)cc(OC(=O)NC(C(=O)O)C(C)O)c2)cc1)C(=O)O (stereo not shown) [Derivative 4]	3.9
CCC(C)C(NC(=O)Oc1ccc(/C=C/c2cc(OC(=O)NC(C(=O)O)C(C)CC)cc(OC(=O)NC(C(=O)O)C(C)CC)c2)cc1)C(=O)O (stereo not shown) [Derivative 3]	0.63
O=C(NC(Cc1ccccc1)C(=O)O)Oc1ccc(/C=C/c2cc(OC(=O)NC(Cc3ccccc3)C(=O)O)cc(OC(=O)NC(Cc3ccccc3)C(=O)O)c2)cc1 (stereo not shown) [Derivative 5]	1.86

# kIII, pseudo first-order rate constant, trisubstituted to disubstituted lookup, item CC(C)CC(NC(=O)Oc1ccc(/C=C/c2cc(OC(=O)NC(CC(C)C)C(=O)O)cc(OC(=O)NC(CC(C)C)C(=O)O)c2)cc1)C(=O)O (stereo not shown) [Derivative 2] 0.57
